- testedOn: human 5-HT2A (h5-HT2A) receptor (Homo sapiens, UniProt P28223)
- Sequence (P28223 whole entry): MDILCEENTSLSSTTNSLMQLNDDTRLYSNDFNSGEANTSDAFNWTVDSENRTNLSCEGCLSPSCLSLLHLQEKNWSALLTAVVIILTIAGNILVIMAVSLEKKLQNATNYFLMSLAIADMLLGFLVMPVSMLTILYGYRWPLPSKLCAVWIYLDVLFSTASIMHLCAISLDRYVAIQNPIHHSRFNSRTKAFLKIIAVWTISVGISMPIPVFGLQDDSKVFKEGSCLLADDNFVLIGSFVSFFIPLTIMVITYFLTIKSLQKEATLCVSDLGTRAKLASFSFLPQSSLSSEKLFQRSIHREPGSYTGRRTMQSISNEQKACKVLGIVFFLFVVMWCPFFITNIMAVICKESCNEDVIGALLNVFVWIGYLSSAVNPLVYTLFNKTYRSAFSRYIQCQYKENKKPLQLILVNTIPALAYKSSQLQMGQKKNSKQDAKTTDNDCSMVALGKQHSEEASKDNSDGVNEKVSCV
- procedureSummary: FLIPR calcium assay, human 5-HT2A, agonist mode
- conditionSummary: read-out: h5-HT2A EC50; FLIPR calcium assay, agonist mode
reportedEndpoint: EC50

Answer with EC50 of CN(C)CCc1c[nH]c2ccccc12 measured for human 5-HT2A (h5-HT2A) receptor (Homo sapiens, UniProt P28223).
< 10 µM

###

- testedOn: human 5-HT2A receptor (Homo sapiens, UniProt P28223)
- procedureSummary: biochemical
pIC50: −log10 of the molar value.
Field: pIC50. Provide a value for each of the compounds that follow.

Solved cases (3 shown):
CCCCC/C=C\C/C=C\CCCCCCCC(=O)N(C)CCc1c[nH]c2ccc(OC)cc12: 4.52 to 5.00
CCCCC/C=C\C/C=C\CCCCCCCC(=O)N1CCC(c2c[nH]c3ccccc23)C1 (centres unmarked): 4.52 to 5.00
CCCCC/C=C\C/C=C\CCCCCCCC(=O)N1CCC(c2c[nH]c3ccc(OC)cc23)C1 (centres unmarked): < 4.52

State the recorded pIC50 for every item in the following list.
1. CCCCC/C=C\C/C=C\CCCCCCCC(=O)N1CCC(c2c[nH]c3ccccc23)CC1
2. CCCCC/C=C\C/C=C\CCCCCCCC(=O)N1CCC[C@@H]1Cc1c[nH]c2ccccc12
3. CCCCC/C=C\C/C=C\CCCCCCCC(=O)N(C)CCc1c[nH]c2ccccc12
4. CCCCC/C=C\C/C=C\CCCCCCCC(=O)N1CCC(c2c[nH]c3ccc(OC)cc23)CC1
5. CCCCC/C=C\C/C=C\CCCCCCCC(=O)N1CCC[C@@H]1Cc1c[nH]c2ccc(OC)cc12

1: 4.52 to 5.00; 2: < 4.52; 3: 4.52 to 5.00; 4: 4.52 to 5.00; 5: < 4.52
